tested-on: kinases (Homo sapiens)
Construct: purchased Eurofins/DiscoveRx; host or cells: E. coli BL21-derived host (T7 phage display) for most kinases; HEK-293 for the rest
Sequence (P10721 26-976): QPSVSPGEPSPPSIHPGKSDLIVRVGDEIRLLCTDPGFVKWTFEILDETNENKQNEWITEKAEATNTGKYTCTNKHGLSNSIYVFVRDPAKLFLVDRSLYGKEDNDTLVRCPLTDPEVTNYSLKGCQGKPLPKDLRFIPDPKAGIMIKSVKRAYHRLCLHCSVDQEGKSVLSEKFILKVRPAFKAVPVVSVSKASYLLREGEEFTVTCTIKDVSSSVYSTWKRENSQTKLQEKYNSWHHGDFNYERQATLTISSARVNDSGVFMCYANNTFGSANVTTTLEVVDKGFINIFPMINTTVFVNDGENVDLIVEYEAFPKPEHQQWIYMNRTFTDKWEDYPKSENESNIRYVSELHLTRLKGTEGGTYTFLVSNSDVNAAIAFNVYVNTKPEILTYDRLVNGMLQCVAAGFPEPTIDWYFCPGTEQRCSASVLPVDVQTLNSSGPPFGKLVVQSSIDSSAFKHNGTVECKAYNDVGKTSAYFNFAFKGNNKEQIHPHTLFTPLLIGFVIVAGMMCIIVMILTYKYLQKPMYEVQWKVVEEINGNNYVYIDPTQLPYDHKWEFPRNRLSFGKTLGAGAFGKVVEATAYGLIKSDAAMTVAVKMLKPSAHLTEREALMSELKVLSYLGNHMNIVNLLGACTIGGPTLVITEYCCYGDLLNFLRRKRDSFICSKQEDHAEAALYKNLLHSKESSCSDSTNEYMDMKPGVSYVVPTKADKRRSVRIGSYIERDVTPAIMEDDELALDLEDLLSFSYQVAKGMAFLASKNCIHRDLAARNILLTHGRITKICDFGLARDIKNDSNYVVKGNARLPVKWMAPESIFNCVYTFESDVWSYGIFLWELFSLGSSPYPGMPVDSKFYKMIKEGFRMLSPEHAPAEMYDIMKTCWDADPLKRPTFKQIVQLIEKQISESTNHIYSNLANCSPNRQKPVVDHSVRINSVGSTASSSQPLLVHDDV
experiment-summary: KINOMEscan kinase binding assay (Eurofins/DiscoveRx), % Ctrl
conditions-used: 1 μM; KIT
Description: Kinase binding assays were performed at Eurofins/DiscoveRx using the general KINOMEscan Protocol (Fabian, M. A. et al., “A small molecule-kinase interaction map for clinical kinase inhibitors,” Nat. Biotechnol. 2005, 23(3):329-36). For most assays, kinase-tagged T7 phage strains were prepared in an E. coli host derived from the BL21 strain. […] The kinase concentration in the eluates was measured by qPCR. […]
Reported % Ctrl, KIT values follow for various compounds
assay-metric: % Ctrl, KIT (% Ctrl)

smiles-str	assay-metric	unit	value
Cc1cc2c([nH]1)/C=C1\C(=O)Nc3cc(Cl)c(cc31)OCCO[C@@H](C(=O)NC1CNC1)CN(C)C2=O	% Ctrl, KIT	% Ctrl	65
Cc1cc2c([nH]1)/C=C1\C(=O)Nc3ccc(cc31)-c1c(C)n[nH]c1CNCCN(C)C2=O	% Ctrl, KIT	% Ctrl	89
Cc1cc2c([nH]1)/C=C1\C(=O)Nc3ccc(cc31)OCCOCCN(C)C2=O	% Ctrl, KIT	% Ctrl	82
Cc1cc2c([nH]1)/C=C1\C(=O)Nc3ccc(cc31)-c1ccnn1CCOCCNC2=O	% Ctrl, KIT	% Ctrl	90
